Data provenance: patent US20080234198A1

- measured_on: T1, rat VPAC1 receptor (rat, UniProt P30083 31-459)
- T1 sequence (looked up): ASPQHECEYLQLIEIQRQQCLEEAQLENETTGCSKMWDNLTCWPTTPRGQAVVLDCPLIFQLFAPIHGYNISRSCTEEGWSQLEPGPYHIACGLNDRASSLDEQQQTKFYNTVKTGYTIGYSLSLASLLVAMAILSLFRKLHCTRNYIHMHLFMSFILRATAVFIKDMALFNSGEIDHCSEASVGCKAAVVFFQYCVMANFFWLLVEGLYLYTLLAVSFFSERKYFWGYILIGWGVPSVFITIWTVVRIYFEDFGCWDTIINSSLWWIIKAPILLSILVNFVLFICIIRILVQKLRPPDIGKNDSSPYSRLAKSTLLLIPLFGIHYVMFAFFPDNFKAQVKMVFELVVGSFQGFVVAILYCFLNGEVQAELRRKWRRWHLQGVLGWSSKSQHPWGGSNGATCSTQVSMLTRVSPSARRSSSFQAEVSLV
- assay_summary: cell-based or functional assay
*1 amine or outer side, *2 acyl side, *3 side chain or, on linkers, in order; H or OH if unused. [ ]: non-standard residue; d: D form. The star is where a group is joined. Tyr(OMe) = methoxy tyrosine, COc1ccc(C[C@H](N[*:1])C(=O)[*:2])cc1; WPEG40K = not defined here; Orn = NCCC[C@H](N)C(=O)O; Abu = CC[C@H](N)C(=O)O; Hexanoyl = CCCCCC(=O)*; Aib = CC(C)(N)C(=O)O
Please use True for Rat VPAC1 Receptor: DiscoveRx: (EC50; nM) under 300 nM and False for everything else, ties included.

>>> answer_label("HSDAVFTEQYTXLRXQLAXXXYLQXIXCXGGPSSGAPPPC (C6-HSDAVFTEQY(OMe)TOrnLRAibQLAAbuAibOrnYLQAibIOrnC(PEG20K)OrnGGPSSGAPPPC(PEG20K)-NH2) [P553]")
"True"

## Input Strictly below 300 nM: is that where Rat VPAC1 Receptor: DiscoveRx: (EC50; nM) of HSDAVFTEQYTRXRXQLAAXXYLQSIKXXGGPSSGAPPPC (C6-HSDAVFTEQY(OMe)TRAibRAibQLAAAibOrnY(OMe)LQSIKAibOrnGGPSSGAPPPC(PEG40K)-NH2) [P417] sits?
## Output True

## Input Strictly below 300 nM: is that where Rat VPAC1 Receptor: DiscoveRx: (EC50; nM) of Hexanoyl-HSDAVFTEQ[Tyr(OMe)]T[Orn]LRK(WPEG40K)QLA[Abu][Aib][Orn]YLQ[Aib]I[Orn][Orn]GGPSSGAPPPS-NH2 (reading uncertain) [P557] sits?
## Output False

## Input Strictly below 300 nM: is that where Rat VPAC1 Receptor: DiscoveRx: (EC50; nM) of HSDAVFTEQYTXLRXQVAAXXYLXSIXXGGPSSGAPPPC (C6-HSDAVFTEQY(OMe)TOrnLRAibQVAAAibOrnYLK(CO(CH2)2SPEG20K)SIOrnOrnGGPSSGAPPPC(PEG20K)-NH2) [P490] sits?
## Output False
